Source: patent US5116855A

- subjectOfTest: aldose reductase (Rattus norvegicus)
- Construct: the lenses were excised and homogenized in cold distilled water; from tissue; host or cells: lens of male SD rats, homogenate supernatant (crude enzyme)
- assayProtocol: Inhibitory activity against aldose reductase (crude enzyme from rat lenses, NADPH oxidation at 340 nm, D,L-glyceraldehyde substrate)
- Format: biochemical
- experimentalConditions: 10^-5 M; aldose reductase from SD rat lenses, pH 6.2, 30° C.
reportedProperty: Percentage of inhibition (%)

# lookup: Percentage of inhibition (%) of CCCC(=Cc1ccccc1OCC(=O)OC)C=C1SC(=S)NC1=O (single isomer, unassigned) [61 Isomer B]
77.2

Do the same for COC(=O)COc1ccccc1C=C(C)C=C1SC(=S)NC1=O please
80.5

What do you get for CCCCCCC(C=Cc1ccc(C(=O)O)cc1)=C1SC(=S)NC1=O (single isomer, unassigned) [26 Isomer A] ?
92.0

Follow-up item: COC(=O)COc1ccc(C=CC(C)=C2SC(=S)NC2=O)cc1OCC(=O)OC (single isomer, unassigned) [60 Isomer B]
70.3

A. CCOC(=O)COc1ccc(C=CC(C)=C2SC(=S)N(C)C2=O)cc1OC (single isomer, unassigned) [55 Isomer B]
B. CC(C=Cc1ccc(OCC(=O)O)cc1)=C1SC(=S)NC1=O (single isomer, unassigned) [21 Isomer B]
Looking only at measured Percentage of inhibition (%), which entry is lower, A or B ? I would appreciate it if you answered with the label of your choice.
A

====

- subjectOfTest: aldose reductase (Rattus norvegicus, UniProt P07943)
- Construct: the lenses were excised and homogenized in cold distilled water; from tissue; host or cells: lens of male SD rats, homogenate supernatant (crude enzyme)
- assayProtocol: Inhibitory activity against aldose reductase (crude enzyme from rat lenses, NADPH oxidation at 340 nm, D,L-glyceraldehyde substrate)
- Format: biochemical
- experimentalConditions: pH 6.2, 10^-6 M; aldose reductase from SD rat lenses, pH 6.2, 30° C.; read-out: Percentage of inhibition (%)
reportedProperty: inhibition at 1 µM (%)

These solved cases illustrate the format of a correct answer.
Which inhibition at 1 µM is reported for this compound? CC(=Cc1ccccc1OCC(=O)O)C=C1SC(=S)NC1=O
82.4

Now try CC(C=Cc1cc(Br)ccc1OCC(=O)O)=C1SC(=S)NC1=O .
86.1

# repeat for COc1ccc(C=CC(CCCC(=O)O)=C2SC(=S)NC2=O)cc1OC (single isomer, unassigned) [38 Isomer A]
86.8

Follow-up item: CC(C=Cc1ccc(OCC(=O)O)cc1)=C1SC(=S)NC1=O (single isomer, unassigned) [21 Isomer A]
78.3

Then what about the compound COC(=O)COc1ccc(C=CC(C)=C2SC(=S)NC2=O)cc1OCC(=O)OC (single isomer, unassigned) [60 Isomer A] ?
27.7

Now give it for CC(C=Cc1ccc(OCC(=O)O)c(OCC(=O)O)c1)=C1SC(=S)NC1=O (single isomer, unassigned) [83 Isomer A] too.
43.4

# repeat for CCCCCCC(C=Cc1ccc(C(=O)O)cc1)=C1SC(=S)NC1=O (single isomer, unassigned) [26 Isomer A]
68.9

Next entry: CCOC(=O)CCC(C=Cc1ccc(OC)c(OC)c1)=C1SC(=S)NC1=O
48.6

a. COC(=O)c1ccccc1NC(=O)C(C)=C1SC(=S)NC1=O
b. COc1cccc(C=CC(C)=C2SC(=S)NC2=O)c1OCC(=O)O
c. O=C(O)CCC(C=Cc1ccccc1F)=C1SC(=S)NC1=O (single isomer, unassigned)
rank_up(items): orders items by reported inhibition at 1 µM in ascending numerical order. Your answer should be the labels, listed in the requested order.
b, c, a
(b: 24.8%, c: 41.9%, a: 62.6%)

1. CC(C=Cc1cc(C)c(OCC(=O)O)c(C)c1)=C1SC(=S)NC1=O
2. CCOC(=O)COc1ccc(CCC(C)=C2SC(=S)NC2=O)cc1OC
Of the two listed items, which has the higher inhibition at 1 µM? First: 1 Second: 2 Field: selected label. Fill in the label of the entry you choose.
1

====

- subjectOfTest: aldose reductase (Rattus norvegicus, UniProt P07943)
- Construct: the lenses were excised and homogenized in cold distilled water; from tissue; host or cells: lens of male SD rats, homogenate supernatant (crude enzyme)
- assayProtocol: Inhibitory activity against aldose reductase (crude enzyme from rat lenses, NADPH oxidation at 340 nm, D,L-glyceraldehyde substrate)
- Format: biochemical
- experimentalConditions: pH 6.2, 10^-6 M; aldose reductase from SD rat lenses, pH 6.2, 30° C.; read-out: Percentage of inhibition (%)
reportedProperty: inhibition at 1 µM (%)

See these solved cases before continuing.
# inhibition at 1 µM lookup, item CCCCCCC(C=Cc1ccc(OCc2nn[nH]n2)cc1)=C1SC(=S)NC1=O
29.9

What about this compound? COc1cc(C=C(C)C=C2SC(=S)NC2=O)ccc1OCC(=O)O
58.6

// repeat for CCOC(=O)COc1ccccc1C=CC(C)=C1SC(=S)NC1=O and report
50.9

Next up: CCOC(=O)COc1ccc(C=C(C)C=C2SC(=S)NC2=O)cc1OC
32

Now consider CC(C=Cc1cc(C(C)C)ccc1OCC(=O)O)=C1SC(=S)NC1=O and answer again.
77.6

Next compound up: COc1ccc(OCC(=O)O)c(C=CC(C)=C2SC(=S)NC2=O)c1
79.1

I. CCOC(=O)COc1ccc(C=CC(C)=C2SC(=S)N(C)C2=O)cc1OC (single isomer, unassigned) [55 Isomer A]
II. CC(C=Cc1cc(C(F)(F)F)ccc1OCC(=O)O)=C1SC(=S)NC1=O
III. O=C(O)CCC(C=Cc1ccc(C(=O)O)cc1)=C1SC(=S)NC1=O
Form: Sort by [inhibition at 1 µM] Order [ ascending ] A complete answer lists every label in the requested sequence.
I, III, II
(I: 23.8%, III: 38.5%, II: 85.7%)

====

- subjectOfTest: aldose reductase (Rattus norvegicus, UniProt P07943)
- Construct: the lenses were excised and homogenized in cold distilled water; from tissue; host or cells: lens of male SD rats, homogenate supernatant (crude enzyme)
- assayProtocol: Inhibitory activity against aldose reductase (crude enzyme from rat lenses, NADPH oxidation at 340 nm, D,L-glyceraldehyde substrate)
- Type: biochemical
- experimentalConditions: pH 6.2, 10^-5 M; aldose reductase from SD rat lenses, pH 6.2, 30° C.; read-out: Percentage of inhibition (%)
- Protocol: The compounds of the present invention were evaluated for the inhibitory activity against aldose reductase according to the following assay procedure. […] The inhibitory activity of the present compounds against aldose reductase was measured using each 1.0 ml of the reaction mixture containing the present compound in the above concentration. In this measurement, the rate of NADPH oxidation was followed by recording the decrease in absorbance at 340 nm. […]
reportedProperty: inhibition at 10 µM (%)

Could you share which inhibition at 10 µM value was measured for CCOC(=O)CCC(C=Cc1ccc(OC)c(OC)c1)=C1SC(=S)NC1=O ?
72

Proceed to CC(C=Cc1cc(C(C)C)ccc1OCC(=O)O)=C1SC(=S)NC1=O
92

P. COC(=O)COc1ccc(C=CC(C)=C2SC(=S)NC2=O)cc1OCC(=O)OC (single isomer, unassigned) [60 Isomer A]
Q. CC(C(=O)Nc1ccccc1C(=O)O)=C1SC(=S)NC1=O
// compare measured inhibition at 10 µM between P and Q ; output the lower one Refer to your chosen entry by its label in the reply.
P
(P: 61.5%, Q: 94%)

====

- subjectOfTest: aldose reductase (Rattus norvegicus, UniProt P07943)
- Construct: the lenses were excised and homogenized in cold distilled water; from tissue; host or cells: lens of male SD rats, homogenate supernatant (crude enzyme)
- assayProtocol: Inhibitory activity against aldose reductase (crude enzyme from rat lenses, NADPH oxidation at 340 nm, D,L-glyceraldehyde substrate)
- Type: biochemical
- experimentalConditions: pH 6.2, 10^-5 M; aldose reductase from SD rat lenses, pH 6.2, 30° C.; read-out: Percentage of inhibition (%)
reportedProperty: inhibition at 10 µM (%)

Request body: readout inhibition at 10 µM, system aldose reductase (Rattus norvegicus, UniProt P07943), query COC(=O)c1ccccc1NC(=O)CCCC(C)=C1SC(=S)NC1=O . Return the value.
34.6

Queued: CCCC(CCc1ccccc1OCC(=O)O)=C1SC(=S)NC1=O (single isomer, unassigned) [27 Isomer A]
90.6

P. CCOC(=O)CCC(C=Cc1ccc(C(F)(F)F)cc1)=C1SC(=S)NC1=O (single isomer, unassigned) [6 Isomer A]
Q. COc1cc(C=CC(C)=C2SC(=S)NC2=O)cc(OC)c1OCC(=O)O
Quick check, higher inhibition at 10 µM between P and Q ? Record your answer as the label of the chosen record.
Q

====

- subjectOfTest: aldose reductase (Rattus norvegicus, UniProt P07943)
- Construct: the lenses were excised and homogenized in cold distilled water; from tissue; host or cells: lens of male SD rats, homogenate supernatant (crude enzyme)
- assayProtocol: Inhibitory activity against aldose reductase (crude enzyme from rat lenses, NADPH oxidation at 340 nm, D,L-glyceraldehyde substrate)
- Assay type: biochemical
- experimentalConditions: pH 6.2, 10^-5 M; aldose reductase from SD rat lenses, pH 6.2, 30° C.; read-out: Percentage of inhibition (%)
reportedProperty: inhibition at 10 µM (%)

Previously resolved entries follow.
Requested read-out: inhibition at 10 µM. Entry: COC(=O)COc1ccccc1C=C(C)C=C1SC(=S)NC1=O
86.2

Similarly, O=C(O)CCC(C=Cc1ccco1)=C1SC(=S)NC1=O ?
72.3

Next: COc1ccc(OCC(=O)O)c(C=CC(C)=C2SC(=S)NC2=O)c1
93.3

O=C(O)CCC(C=Cc1ccccc1F)=C1SC(=S)NC1=O (single isomer, unassigned) , same question.
88.1

# repeat for COc1ccc(C=CC(CCCC(=O)O)=C2SC(=S)NC2=O)cc1OC (single isomer, unassigned) [38 Isomer A]
95.7

P. CC(C=Cc1cc(Cl)ccc1OCC(=O)OCc1ccccc1)=C1SC(=S)NC1=O
Q. COc1cc(C=CC(C)=C2SC(=S)N(C)C2=O)ccc1OCC(=O)O
Please indicate which has the smaller reported inhibition at 10 µM: P , or Q . Please respond with the label that marks your chosen entry.
P
(P: 48%, Q: 87.1%)

1. O=C(O)CCC(C=Cc1ccc(C(=O)O)cc1)=C1SC(=S)NC1=O
2. CCOC(=O)COc1ccc(C=CC(C)=C2SC(=S)N(C)C2=O)cc1OC (single isomer, unassigned) [55 Isomer A]
Select one: 1 or 2 . Criterion: greater recorded inhibition at 10 µM. Indicate which entry you chose by stating its label.
1
(1: 82.8%, 2: 38.1%)
